Reference source: patent US20250376479A1

Tested on: NCI-H460
Assay: Cytotoxicity test, luminescent cell viability
Format: cell-based
Conditions: Homo sapiens; NCI-H460 (LCLC), 72-hour incubation
measurement_label: IC50 (µM)

- smiles: "CC[C@@]1(O)C(=O)OCc2c1cc1n(c2=O)Cc2c-1nc1cc(F)c(C)c3c1c2[C@H](NC(=O)C1COC1)CC3"
  units_label: "µM"
  value: 0.0312
- smiles: "CC[C@@]1(O)C(=O)OCc2c1cc1n(c2=O)Cc2c-1nc1cc(F)c(C)c3c1c2[C@H](NC(=O)C1CCC1)CC3"
  units_label: "µM"
  value: 0.0068
- smiles: "CC[C@@]1(O)C(=O)OCc2c1cc1n(c2=O)Cc2c-1nc1cc(F)c(C)c3c1c2[C@H](NC(=O)CCOC)CC3"
  units_label: "µM"
  value: 0.0194
- smiles: "CC[C@@]1(O)C(=O)OCc2c1cc1n(c2=O)Cc2c-1nc1cc(F)c(C)c3c1c2[C@H](NC(=O)C(C)C)CC3"
  units_label: "µM"
  value: 0.0074

---

Test system: NCI-H460
Assay: Cytotoxicity test, luminescent cell viability
Assay type: cell-based
Conditions: Homo sapiens; NCI-H460 (LCLC), 72-hour incubation
pIC50: −log10 of the molar value.
List of pIC50 values.

- compound: "CCCCC(=O)N[C@@H]1CCc2c(C)c(F)cc3nc4c(c1c23)Cn1c-4cc2c(c1=O)COC(=O)[C@]2(O)CC"
  pIC50: 7.99
- compound: "CC[C@@]1(O)C(=O)OCc2c1cc1n(c2=O)Cc2c-1nc1cc(F)c(C)c3c1c2[C@H](NC(=O)CC(C)C)CC3"
  pIC50: 8.35
- compound: "CC[C@@]1(O)C(=O)OCc2c1cc1n(c2=O)Cc2c-1nc1cc(F)c(C)c3c1c2[C@H](NC(=O)C1CC1)CC3"
  pIC50: 8.05
- compound: "CC[C@@]1(O)C(=O)OCc2c1cc1n(c2=O)Cc2c-1nc1cc(F)c(C)c3c1c2[C@H](NC(=O)C1CCCO1)CC3 (some centres unmarked)"
  pIC50: 7.95
- compound: "CC[C@@]1(O)C(=O)OCc2c1cc1n(c2=O)Cc2c-1nc1cc(F)c(C)c3c1c2[C@H](NC(=O)CN(C)C)CC3"
  pIC50: 7.81

---

Test: Membrane permeability test (Caco-2 monolayer)
Format: in vitro ADME
Conditions: human, Caco-2, pH 7.4
Please enter rule met where Papp A→B at 2 h, 2 μM is greater than or equal to 0.3 ×10⁻⁶ cm/s, and rule not met where it is lower.

- molecule: "CC[C@@]1(O)C(=O)OCc2c1cc1n(c2=O)Cc2c-1nc1cc(F)c(C)c3c1c2[C@H](NC(=O)CN(C)C)CC3"
  cat: "rule not met"
- molecule: "CCCCC(=O)N[C@@H]1CCc2c(C)c(F)cc3nc4c(c1c23)Cn1c-4cc2c(c1=O)COC(=O)[C@]2(O)CC"
  cat: "rule met"
- molecule: "CC[C@@]1(O)C(=O)OCc2c1cc1n(c2=O)Cc2c-1nc1cc(F)c(C)c3c1c2[C@H](NC(=O)C1CCC1)CC3"
  cat: "rule not met"
- molecule: "CC[C@@]1(O)C(=O)OCc2c1cc1n(c2=O)Cc2c-1nc1cc(F)c(C)c3c1c2[C@H](NC(=O)CCOC)CC3"
  cat: "rule not met"
- molecule: "CC[C@@]1(O)C(=O)OCc2c1cc1n(c2=O)Cc2c-1nc1cc(F)c(C)c3c1c2[C@H](NC(=O)C1COC1)CC3"
  cat: "rule not met"
- molecule: "CC[C@@]1(O)C(=O)OCc2c1cc1n(c2=O)Cc2c-1nc1cc(F)c(C)c3c1c2[C@H](NC(=O)C1CC1)CC3"
  cat: "rule not met"
- molecule: "CC[C@@]1(O)C(=O)OCc2c1cc1n(c2=O)Cc2c-1nc1cc(F)c(C)c3c1c2[C@H](NC(=O)C1CCCO1)CC3 (some centres unmarked)"
  cat: "rule met"
- molecule: "CC[C@@]1(O)C(=O)OCc2c1cc1n(c2=O)Cc2c-1nc1cc(F)c(C)c3c1c2[C@H](NC(=O)C(C)C)CC3"
  cat: "rule met"
